Experiment: reversal of MRP1-mediated doxorubicin resistance, pilot screen, H69AR cells, doxorubicin co-treatment (AID 601)
Conditions: H69AR cells + 2 uM doxorubicin, CellTiter-Glo, 72 h; measured here: viability with 2 uM doxorubicin; at 10 µM; stronger effect = lower value
Reported viability values follow for various compounds
Respond with the bare value in %.

Consider the worked cases shown below.
O=c1c[n+]([O-])c2ccccc2n1OCc1ccccn1 : 92.7
Cc1nc2sccn2c(=O)c1CCN1CCC(=C(c2ccc(F)cc2)c2ccc(F)cc2)CC1 : 87.8
COc1ccc(-c2nc(SC)n(S(=O)(=O)c3ccccc3)n2)cc1 : 80.6
O=C(CCCCn1c(=O)c2ccccc2n(Cc2ccc(Cl)cc2)c1=O)NCc1ccco1 : 43
COc1ccccc1-c1coc2c(CN3CCN(CCO)CC3)c(O)ccc2c1=O : 87.5
CC(C)N=c1cc2n(-c3ccc(Cl)cc3)c3ccccc3nc-2cc1Nc1ccc(Cl)cc1 : 71

If you can, please state the reported viability value of Oc1ccc(N2CCN(C(c3ccncc3)c3nnnn3C3CCCC3)CC2)cc1 (centres undefined) .
87.6

Consider next the compound `CCn1c(SCc2nc(-c3cccs3)no2)nnc1-c1c[nH]c2ccccc12` in the same way.
74.4

Consider next the compound COc1ccc(C2c3c(oc4ccccc4c3=O)C(=O)N2Cc2ccncc2)cc1OC (centres undefined) in the same way.
95.8

Consider next the compound `CC(C)Cc1n[nH]c(=O)[nH]1` in the same way.
88.7

###

Reported viability values follow for various molecules
Assay: reversal of MRP1-mediated doxorubicin resistance, pilot screen, H69AR cells, doxorubicin co-treatment (AID 601)
Conditions: H69AR cells, CellTiter-Glo, 72 h; compound alone cytotoxicity; at 10 µM
Respond with the bare value in %.

Consider the worked cases shown below.
Cc1ccc(CNC(=O)C2CCN(S(=O)(=O)c3cccs3)CC2)o1 : 81
Cn1c(=O)c2c(nc(NCCCO)n2Cc2cccc(Br)c2)n(C)c1=O : 85.7
CN(C)c1ccc(C2C3=C(CCCC3=O)OC3=C2C(=O)CCC3)cc1 : 92.5
Cc1cccc(-n2ncc(C#N)c2N)c1 : 104
O=S(=O)(NCC1CCCO1)c1ccc(S(=O)(=O)N2CCc3ccccc3C2)cc1 (stereo not drawn) : 94.8

Consider now this further molecule.
If you can, please state the reported viability value of `Cc1cc(C(=O)Nc2cccc(O)c2)c(C)o1` .
90

###

Test: reversal of MRP1-mediated doxorubicin resistance, pilot screen, H69AR cells, doxorubicin co-treatment (AID 601)
Settings: H69AR cells, CellTiter-Glo, 72 h; compound alone cytotoxicity; at 10 µM
MEASURE NAME: viability (%)
Respond with the bare value in %.

Consider the worked cases shown below.
O=C(Nc1ccc(Cl)c(C(F)(F)F)c1)N1CCCC(O)C1 (configuration not stated) : 105
Cc1c(/C(O)=C2/C(=O)C(=O)N(CCN3CCOCC3)C2c2cccs2)cnn1-c1ccccc1 (configuration not stated) : 96.2
COc1ccc(C2=NOC(C(=O)Nc3cc(Br)ccc3O)C2)cc1OC (configuration not stated) : 60.1

Consider now this further compound.
If you can, please state the reported viability value of `Cn1c(=O)n(C)c2cc(NC(=O)C(F)(F)F)ccc21` .
97.4

###

Assay: reversal of MRP1-mediated doxorubicin resistance, pilot screen, H69AR cells, doxorubicin co-treatment (AID 601)
Settings: H69AR cells + 2 uM doxorubicin, CellTiter-Glo, 72 h; measured here: viability with 2 uM doxorubicin; at 10 µM; stronger effect = lower value
Reported viability values follow for various compounds
Respond with the bare value in %.

If you can, please state the reported viability value of `COCCOC(=O)c1cc(C(=O)c2cc(F)ccc2O)coc1=N` .
95.1

Consider next the compound CC1=C(C(=O)Nc2ccccc2C)C2(CCCC2)C(C(N)=O)C(=O)N1 (stereo not drawn) in the same way.
88.4

Consider next the compound `CSc1ccc(-c2cc(=O)c3ccccc3o2)cc1` in the same way.
73.6

Consider next the compound COC(=O)C1=C(C)Nc2ncnn2C1c1ccco1 (stereo not drawn) in the same way.
81.2

Consider next the compound `Cc1cnc(C(=O)NCCc2ccc(S(=O)(=O)NC(=O)NC3CCCCC3)cc2)cn1` in the same way.
106
